Sourced from the NIST ThermoML archive (doi:10.1021/acs.jced.8b00554)

# Stated conditions: 313.15 K; 100 kPa; Liquid; Vibrating tube method
Measured endpoint: mass density (kg/m3)

CCCCCCCCC
701.49
CCCO
787.65
CCCCCCCCCC
714.75
CCCCCCCC
686.05

###

# Stated conditions: 353.15 K; 100 kPa; Liquid; Vibrating tube method
Measured endpoint: mass density (kg/m3)

CCCCCCCCCC [decane]
683.75
CCCO [propan-1-ol]
752.39
CCCCCCCCC [nonane]
669.55
CCCCCCCC [octane]
652.22

###

# Stated conditions: 323.15 K; 100 kPa; Liquid; Vibrating tube method
Measured endpoint: mass density (kg/m3)

CCCO
779.29
CCCCCCCCC
693.34
CCCCCCCCCC
706.95
CCCCCCCC
677.56
